Attribute: IC50
- system_under_test: CDK4/CyclinD1 (Homo sapiens (Human))
- Sequence (P11802 whole entry): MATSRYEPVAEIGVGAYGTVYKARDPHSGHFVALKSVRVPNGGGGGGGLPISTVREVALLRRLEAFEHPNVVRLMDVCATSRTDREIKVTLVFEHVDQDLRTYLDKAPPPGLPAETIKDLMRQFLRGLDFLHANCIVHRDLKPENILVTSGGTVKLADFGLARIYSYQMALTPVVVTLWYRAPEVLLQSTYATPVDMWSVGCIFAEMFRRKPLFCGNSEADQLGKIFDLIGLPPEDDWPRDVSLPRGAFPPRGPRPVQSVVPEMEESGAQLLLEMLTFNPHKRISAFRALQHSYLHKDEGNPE
- Sequence (P24385 whole entry partner): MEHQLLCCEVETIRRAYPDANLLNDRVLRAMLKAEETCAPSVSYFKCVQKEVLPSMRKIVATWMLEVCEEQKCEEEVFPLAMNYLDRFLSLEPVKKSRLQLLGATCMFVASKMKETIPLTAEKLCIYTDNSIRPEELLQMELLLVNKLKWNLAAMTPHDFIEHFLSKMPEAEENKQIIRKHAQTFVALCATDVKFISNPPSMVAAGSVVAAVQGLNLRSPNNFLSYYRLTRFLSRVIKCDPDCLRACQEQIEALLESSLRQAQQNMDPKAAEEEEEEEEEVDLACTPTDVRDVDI
- protocol_description: CDK4 kinase assay (TR-FRET)
- condition: CDK4/CyclinD1 0.50 nM, ATP 225 μM
In your response, put the unit directly after the numeric value.

compound: CC(C)NC(=O)O[C@@H]1CC[C@H](c2cc(NC(=O)[C@@H]3CCN(S(C)(=O)=O)C3)n[nH]2)C1 [Compound 25]
IC50: 510 nM
--
compound: CC[C@H](C)NC(=O)O[C@@H]1CC[C@H](c2cc(NC(=O)[C@H]3C[C@@H]3COC)n[nH]2)C1 [Compound 33]
IC50: 652 nM
--
compound: CC1(NC(=O)OC2COC(c3cc(NC(=O)Cc4cc(F)cc(F)c4)n[nH]3)C2)CCOC1 (stereo not shown) [Compound 52]
IC50: 1000 nM

Turning now to a further record.
Which IC50 reading was recorded for the compound C#C[C@H]1C[C@@H]1C(=O)Nc1cc([C@H]2CC[C@@H](OC(=O)NC(C)C)C2)[nH]n1 [Compound 41] ?
306 nM

###

- system_under_test: CDK2/CyclinE1 (Homo sapiens (Human), UniProt P24941)
- protocol_description: CDK2 kinase assay (TR-FRET)
- condition: CDK2/CyclinE1 0.5 nM, ATP 50 μM
endpoint: IC50 (nM)
Number in nM, nothing else.

Example compounds with recorded IC50:
compound: CC1(NC(=O)O[C@@H]2CC[C@H](c3cc(NC(=O)C4CC4C#N)n[nH]3)C2)CC1 (single isomer, unassigned) [Compound 213]
result_unit: nM
IC50: 0.9

compound: CC(C)NC(=O)O[C@@H]1CC[C@H](c2cc(NC(=O)[C@@H]3CCCN(S(C)(=O)=O)C3)n[nH]2)C1 [Compound 71]
result_unit: nM
IC50: 8.7

Turning now to a further record.
Which IC50 reading was recorded for the compound C#C[C@H]1C[C@@H]1C(=O)Nc1cc([C@@H]2C[C@H](OC(=O)N[C@@H](C)CC)CO2)[nH]n1 [Compound 156] ?
6

###

- system_under_test: CDK2/CyclinE1 (Homo sapiens (Human), UniProt P24941)
- protocol_description: CDK2 kinase assay (TR-FRET)
- Assay type: biochemical
- condition: CDK2/CyclinE1 0.5 nM, ATP 50 μM
endpoint: pIC50
Reminder that pIC50 means the negative base-10 logarithm of the concentration expressed in mol/L.

compound: Cc1c(C2CC2C(=O)Nc2cc([C@@H]3CC[C@H](OC(=O)NC(C)C)C3)[nH]n2)cnn1C (single isomer, unassigned) [Compound 208]
reported: 9.10
--
compound: CC(C)NC(=O)O[C@@H]1CC[C@H](c2cc(NC(=O)C3CC3c3cnnn3C)n[nH]2)C1 (single isomer, unassigned) [Compound 154]
reported: 8.59
--
compound: CS(=O)(=O)N1CC[C@@H](C(=O)Nc2cc([C@H]3CC[C@@H](OC(=O)NC4(C(F)F)CC4)C3)[nH]n2)C1
reported: 8.92
--
compound: CC(C)NC(=O)O[C@@H]1CC[C@H](c2cc(Nc3nccc(CCO)n3)n[nH]2)C1 [Compound 29]
reported: 7.16
--
compound: COCc1cc(C(=O)Nc2cc([C@H]3CC[C@@H](OC(=O)N[C@H]4C[C@]5(CCOC5)C4)C3)[nH]n2)n(C)n1
reported: 8.41
--
compound: C#C[C@H]1C[C@@H]1C(=O)Nc1cc([C@H]2CC[C@@H](OC(=O)NC(C)C)C2)[nH]n1
reported: 9.05

Turning now to a further record.
Which pIC50 reading was recorded for the compound "CC(C)NC(=O)O[C@@H]1CC[C@H](C2=CC(NC(=O)[C@H]3C[C@@H]3[C@H](C)O)=NC2)C1" ?
8.92

###

- system_under_test: CDK2/CyclinE1 (Homo sapiens (Human), UniProt P24941)
- protocol_description: CDK2 kinase assay (TR-FRET)
- condition: CDK2/CyclinE1 0.5 nM, ATP 50 μM
Attribute: IC50
Number in nM, nothing else.

compound: C#C[C@H]1C[C@@H]1C(=O)Nc1cc([C@H]2C[C@@H](OC(=O)NC3(C)COC3)CO2)[nH]n1 [Compound 182]
endpoint: IC50
result_unit: nM
reported: 4

compound: CC[C@H](C)NC(=O)O[C@@H]1CC[C@H](c2cc(NC(=O)C3CC3C#N)n[nH]2)C1 (single isomer, unassigned) [Compound 199]
endpoint: IC50
result_unit: nM
reported: 2.3

Turning now to a further record.
Which IC50 reading was recorded for the compound COC1CCC(C(=O)Nc2cc([C@H]3CC[C@@H](OC(=O)NC(C)C)C3)[nH]n2)C1 (single isomer, unassigned) [Compound 61] ?
13.1

###

- system_under_test: CDK2/CyclinE1 (Homo sapiens (Human))
- protocol_description: CDK2 kinase assay (TR-FRET)
- Assay type: biochemical
- condition: CDK2/CyclinE1 0.5 nM, ATP 50 μM
Attribute: pIC50
Reminder that pIC50 means the negative base-10 logarithm of the concentration expressed in mol/L.

Example molecules with recorded pIC50:
molecule: CC(C)NC(=O)O[C@@H]1CO[C@H](c2cc(NC(=O)Cc3ccc4ncn(C)c4c3)n[nH]2)C1 [Compound 103]
reported: 7.97
--
molecule: CC1(NC(=O)O[C@H]2CC[C@@H](c3cc(NC(=O)C4CC4C#N)n[nH]3)C2)CC1 (single isomer, unassigned) [Compound 196]
reported: 9.40

Which pIC50 reading was recorded for the molecule CC(C)NC(=O)O[C@@H]1CC[C@H](c2cc(NC(=O)C3CCOCC3)n[nH]2)C1 [Compound 1] ?
8.15

Which pIC50 reading was recorded for the molecule CC(C)NC(=O)O[C@@H]1CC[C@H](c2cc(NC(=O)C3CC34CCOC4)n[nH]2)C1 (stereo partly shown) [Compound 176] ?
7.48

Which pIC50 reading was recorded for the molecule CC1(NC(=O)OC2COC(c3cc(NC(=O)Cc4cc(F)cc(F)c4)n[nH]3)C2)CCOC1 (stereo not shown) [Compound 50] ?
9.05

Which pIC50 reading was recorded for the molecule Cc1occc1C(=O)Nc1cc([C@H]2C[C@@H](OC(=O)NC(C)C)CO2)[nH]n1 [Compound 129] ?
7.93

Which pIC50 reading was recorded for the molecule CC(C)NC(=O)O[C@@H]1CC[C@H](c2cc(NC(=O)C3CC(C)N(S(C)(=O)=O)C3)n[nH]2)C1 (single isomer, unassigned) [Compound 143] ?
8.92

###

Attribute: pIC50
- system_under_test: CDK2/CyclinE1 (Homo sapiens (Human), UniProt P24941)
- protocol_description: CDK2 kinase assay (TR-FRET)
- condition: CDK2/CyclinE1 0.5 nM, ATP 50 μM
Reminder that pIC50 means the negative base-10 logarithm of the concentration expressed in mol/L.

Example compounds with recorded pIC50:
compound: C#C[C@H]1C[C@@H]1C(=O)Nc1cc([C@@H]2C[C@H](OC(=O)NC(C)(C)CC)CO2)[nH]n1 [Compound 169]
system_under_test: CDK2/CyclinE1 (Homo sapiens (Human), UniProt P24941)
pIC50: 8.72

compound: CC[C@H](C)NC(=O)O[C@@H]1CC[C@H](c2cc(NC(=O)C3CC3C#N)n[nH]2)C1 (single isomer, unassigned) [Compound 200]
system_under_test: CDK2/CyclinE1 (Homo sapiens (Human), UniProt P24941)
pIC50: 9.05

compound: COC[C@H]1C[C@@H]1C(=O)Nc1cc([C@H]2CC[C@@H](OC(=O)NC(C)C(F)F)C2)[nH]n1 (single isomer, unassigned) [Compound 108]
system_under_test: CDK2/CyclinE1 (Homo sapiens (Human), UniProt P24941)
pIC50: 8.30

compound: COC[C@H]1C[C@@H]1C(=O)Nc1cc([C@H]2CC[C@@H](OC(=O)NC(C)C(F)F)C2)[nH]n1 (single isomer, unassigned) [Compound 107]
system_under_test: CDK2/CyclinE1 (Homo sapiens (Human), UniProt P24941)
pIC50: 8.52

compound: COC[C@H]1C[C@@H]1C(=O)Nc1cc([C@H]2CC[C@@H](OC(=O)NC3(C)CC3)C2)[nH]n1 [Compound 35]
system_under_test: CDK2/CyclinE1 (Homo sapiens (Human), UniProt P24941)
pIC50: 9.10

Turning now to a further record.
Which pIC50 reading was recorded for the compound Cn1nccc1C(=O)Nc1cc([C@@H]2C[C@H](OC(=O)NC34CC(C3)C4)CO2)[nH]n1 [Compound 97] ?
8.96

###

- system_under_test: CDK1/CyclinB1 (Homo sapiens (Human))
- Sequence (P06493 whole entry): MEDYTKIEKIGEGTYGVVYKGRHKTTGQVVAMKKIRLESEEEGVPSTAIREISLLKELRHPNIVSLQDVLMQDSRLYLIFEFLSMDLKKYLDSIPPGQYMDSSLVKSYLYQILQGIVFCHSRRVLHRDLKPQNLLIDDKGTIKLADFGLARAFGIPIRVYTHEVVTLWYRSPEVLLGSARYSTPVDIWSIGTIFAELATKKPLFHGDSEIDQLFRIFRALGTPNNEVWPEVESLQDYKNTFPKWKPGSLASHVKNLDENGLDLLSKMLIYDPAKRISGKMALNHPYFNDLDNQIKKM
- Sequence (P14635 whole entry partner): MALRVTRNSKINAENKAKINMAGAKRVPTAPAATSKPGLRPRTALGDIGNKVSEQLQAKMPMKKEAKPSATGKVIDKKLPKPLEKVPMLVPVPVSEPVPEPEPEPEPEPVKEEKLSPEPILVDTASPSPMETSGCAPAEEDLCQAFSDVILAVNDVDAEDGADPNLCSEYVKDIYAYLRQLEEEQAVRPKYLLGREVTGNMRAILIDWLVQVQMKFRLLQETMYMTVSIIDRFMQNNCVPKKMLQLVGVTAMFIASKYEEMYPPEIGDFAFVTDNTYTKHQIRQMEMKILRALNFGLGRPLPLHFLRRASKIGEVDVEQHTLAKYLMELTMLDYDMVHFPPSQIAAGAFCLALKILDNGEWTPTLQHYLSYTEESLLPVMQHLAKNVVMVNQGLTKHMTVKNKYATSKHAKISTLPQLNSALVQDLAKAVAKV
- protocol_description: CDK1 kinase assay (TR-FRET)
- condition: CDK1/CyclinB 7.5 nM, ATP 17 μM
Attribute: IC50
Number in nM, nothing else.

Example compounds with recorded IC50:
compound: CC(C)NC(=O)O[C@@H]1CC[C@H](C2=CC(NC(=O)[C@H]3C[C@@H]3[C@H](C)O)=NC2)C1 [Compound 136]
endpoint: IC50
result_unit: nM
reported: 64.6
--
compound: Cn1nccc1C(=O)Nc1cc([C@H]2C[C@@H](OC(=O)NC3CCC3)CO2)[nH]n1 [Compound 122]
endpoint: IC50
result_unit: nM
reported: 89.4
--
compound: CC(C)NC(=O)O[C@@H]1CC[C@H](c2cc(NC(=O)[C@@H]3CCN(S(C)(=O)=O)C3)n[nH]2)C1 [Compound 25]
endpoint: IC50
result_unit: nM
reported: 54.9

Turning now to a further record.
Which IC50 reading was recorded for the compound Cn1nccc1C(=O)Nc1cc([C@@H]2C[C@H](OC(=O)NC34CC(C3)C4)CO2)[nH]n1 [Compound 97] ?
72.6

Source: patent US20250195475A1
